Molecular target: T1, extracellular portion of human CD137 fused to a histidine-containing peptide (human, UniProt Q07011 24-186)
T1 construct: extracellular domain; also called huCD137; His-tagged soluble human CD137
Assay: SPR (BIACORE); antibody captured on anti-human Fc; huCD137 25 and 100 nM; 1:1 Langmuir
Protocol: Thus, an extracellular portion of human CD137 fused to a histidine-containing peptide (“huCD137”) was passed over a surface coated with immobilized antibody. Briefly, each test molecule was captured onto an F(ab)₂ goat-anti-human Fc-coated surface and then incubated in the presence of different concentrations (25 nM and 100 nM) of huCD137. The kinetics of binding were determined via BIACORE® analysis binding (normalized 1:1 Langmuir binding model).
Task for the reader: assign each of the following binders its reported Kd.
Give bare numbers, in nM.

Past entries and their recorded results:
binder	Kd, nM
hCD137 MAB-3 (1.2) (antibody, V domains shown, also called chCD137 MAB-3 (1.2)) VH: QVQLVQSGAEVKKPGASVKVSCKASGYTFTSYWINWVKQAPGQGLEWIGNIYPSDSYTNYNQKFKDKATITADKSTSTAYMELSSLRSEDTAVYYCTRDYGSSYSFDYWGQGTTVTVSS VL: DIQMTQSPSSLSASVGDRVTITCRPSQDISNYLNWYQQKPGGTVKLLIYYTSRLRSGVPSRFSGSGSGTDFTFTISSLQPEDIATYFCQQGDTLPYTFGQGTKLEIK	49
chCD137 MAB-4 (antibody, V domains shown) VH: QVQLQQPGAELVRPGASVKLSCKASGYTFTSYWINWVKQRPGQGLEWIGNIYPSDSYTNYDQKFKDKATLTVDKSSSTAYMQLSSPTSEDSAVYYCTKSGEYGKIGYYAMDYWGQGTSVTVSS VL: DIQMTQTTSSLSASLGDRVTISCRASQDISNYLNWYQQKPDGTVKLLIYYTSRLHSGVPSRFSGSGSGTDYSLTISNLEQEDIATYFCQQGNTLPYTFGGGTKLEIK	6.1
chCD137 MAB-3 (antibody, V domains shown) VH: QVQLQQPGAELVRPGASVKLSCKASGYTFTSYWINWVKQRPGQGLEWIGNIYPSDSYTNYNQKFKDKATLTVDKSSSTAYMQLSSPTSEDSAVYYCTRDYGSSYSFDYWGQGTTLTVSS VL: DIQMTQTTSSLSASLGDRVTISCRPSQDISNYLNWYQQKPDGTVKLLIYYTSRLRSGVPSRFSGSGSGTDYSLTISNLEQEDIATYFCQQGDTLPYTFGGGTKLEIK	23
hCD137 MAB-3 (1.3) (antibody, V domains shown, also called chCD137 MAB-3 (1.3)) VH: QVQLVQSGAEVKKPGASVKVSCKASGYTFTSYWINWVKQAPGQGLEWIGNIYPSDSYTNYNQKFKDKATITADKSTSTAYMELSSLRSEDTAVYYCTRDYGSSYSFDYWGQGTTVTVSS VL: DIQMTQSPSSLSASVGDRVTITCRPSQDISNYLNWYQQKPDKTVKLLIYYTSRLRSGVPSRFSGSGSGTDFTFTISSLQPEDIATYFCQQGDTLPYTFGQGTKLEIK	50
hCD137 MAB-3 (1.1) (antibody, V domains shown, also called chCD137 MAB-3 (1.1)) VH: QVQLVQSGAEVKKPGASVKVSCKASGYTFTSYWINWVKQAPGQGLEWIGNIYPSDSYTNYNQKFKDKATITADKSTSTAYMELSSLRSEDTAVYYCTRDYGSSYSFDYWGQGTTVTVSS VL: DIQMTQSPSSLSASVGDRVTITCRPSQDISNYLNWYQQKPDGTVKLLIYYTSRLRSGVPSRFSGSGSGTDFTFTISSLQPEDIATYFCQQGDTLPYTFGQGTKLEIK	46

// for each binder in input: emit Kd
1. hCD137 MAB-4 (1.2) (antibody, V domains shown, also called chCD137 MAB-4 (1.2)) VH: QVQLVQSGAEVKKPGASVKVSCKASGYTFTSYWINWVRQAPGQGLEWMGNIYPSDSYTNYDQKFKDRVTMTRDTSTSTVYMELSSLRSEDTAVYYCTKSGEYGKIGYYAMDYWGQGTTVTVSS VL: DIQMTQSPSSLSASVGDRVTITCRASQDISNYLNWYQQKPDKTVKLLIYYTSRLHSGVPSRFSGSGSGTDYTLTISSLQPEDIATYYCQQGNTLPYTFGQGTKLEIK
2. hCD137 MAB-4 (1.1) (antibody, V domains shown, also called chCD137 MAB-4 (1.1)) VH: QVQLVQSGAEVKKPGASVKVSCKASGYTFTSYWINWVRQAPGQGLEWMGNIYPSDSYTNYDQKFKDRVTMTRDTSTSTVYMELSSLRSEDTAVYYCTKSGEYGKIGYYAMDYWGQGTTVTVSS VL: DIQMTQSPSSLSASVGDRVTITCRASQDISNYLNWYQQKPDKTVKLLIYYTSRLHSGVPSRFSGSGSGTDYTLTISSLQPEDIATYFCQQGNTLPYTFGQGTKLEIK

*A*
1. 13.6
2. 16.2
